Read-out: Insulin Like Growth Factor 1 (IGF1), IGF1 (gene 3479)
Assay: LTEA_HepaRG_IGF1: Life Technologies and Expression Analysis (LTEA) Assay for Insulin Like Growth Factor 1 (IGF1) using HepaRG (AID 2283506)
Conditions: mRNA level, 48 h; actives raise or lower the signal
The source made the active and inactive calls. Rule for the calls: active = hit-call score of the fitted dose curve at least 0.9, where 1 is the maximum; inactive = score below 0.9.
Pick one: label 1 for active, label 0 for inactive

FC(F)(F)C(F)(F)C(F)(F)C(F)(F)C(F)(F)C(F)(F)CCI	label 0
Nc1ccc2c(c1)C(=O)c1ccccc1C2=O	label 0
OC[C@@H](O)[C@@H](O)[C@H](O)[C@H](O)CO	label 0
CC1(C)CC(N=C=O)CC(C)(CN=C=O)C1 (centres undefined)	label 0
Cc1ccc(Cl)cc1	label 0
Cc1cccc(C)c1O	label 0
CC=Cc1ccc(O)c(OC)c1	label 0
CCCCCCCCCCCCCCCC	label 0

In: For this compound, state the assay outcome: Cc1nc(-c2ccc3c(c2)CCN(CCC2CCC(NC(=O)/C=C/c4ccc(F)cc4)CC2)CC3)no1 (centres undefined)
Out: label 0

In: Which result was noted for this compound in the test: CC(=O)C(C)=CC1C(C)=CCCC1(C)C (centres undefined)
Out: label 0

In: Would you mind telling me which call this test gave `CCCCCC(=O)O` ?
Out: label 0

In: // outcome(item) with item = `CNCc1cc(F)ccc1Oc1ccc(Cl)c(Cl)c1`
Out: label 1

In: Please let me know the test result on file for `CCCCCCCCCCC` .
Out: label 0

In: Hey, what did the test say about `O=C(O)Cc1ccccc1Nc1c(Cl)cccc1Cl` ?
Out: label 1

---

Test: BSK_LPS_SRB: Viability Assessment in the BioMAP Diversity Plus: LPS Assay (AID 2283079);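 note: total protein by sulforhodamine B absorbance as a cytotoxicity measure; measured one day after compound addition; fitted in both directions against DMSO so loss or gain of signal counts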
Settings: primary human HUVEC with PBMC
Activity calls are given as the source filed them. The calls were made as follows: active = hit-call score of the fitted dose curve at least 0.9, where 1 is the maximum; inactive = score below 0.9.
The categories you may choose from are TRUE for active, FALSE for inactive

Previously resolved entries follow.
CCOC(=O)C(C)(C)Oc1ccc(Cl)cc1	FALSE
Cc1c(C(=O)O)c(O)cc2c1C(=O)c1c(O)c([C@@H]3O[C@H](CO)[C@@H](O)[C@H](O)[C@H]3O)c(O)c(O)c1C2=O	FALSE
COc1cc(S(=O)(=O)O)c(C)cc1N=Nc1c(O)ccc2cc(S(=O)(=O)O)ccc12	FALSE
c1cc(-c2ccncc2)ccn1	FALSE
CCNc1cccc(C)c1	FALSE

In: Short answer needed: outcome of this test for `CC(C)c1ccc(C(=O)N=C(N)N)cc1S(C)(=O)=O` ?
Out: FALSE

In: Hi, do you know how COCCOC[C@H](CC1(C(=O)NC2CCC(C(=O)O)CC2)CCCC1)C(=O)Oc1ccc2c(c1)CCC2 (stereo not given in full) came out in this test?
Out: FALSE

In: Hello, I am checking results. What call was entered for `CC=Cc1ccc(O)c(OC)c1` ?
Out: FALSE

In: In this assay, the call recorded for `Nc1ccc(S(=O)(=O)c2ccc(N)cc2)cc1` was what?
Out: FALSE

In: Hi team, can someone confirm the assay call for `CCCCOC(=O)CCCCCCCCC(=O)OCCCC` ?
Out: FALSE

In: Assay outcome for `CCCCCCCCCCCCCCCCCC(=O)O` : what was it?
Out: TRUE

---

Read-out: Tumor necrosis factor receptor 1 (TNFRSF1A), TNFRSF1A (gene 7132)
Experiment: LTEA_HepaRG_TNFRSF1A: Life Technologies and Expression Analysis (LTEA) Assay for Tumor necrosis factor receptor 1 (TNFRSF1A) using HepaRG (AID 2283535)
Settings: mRNA level, 48 h; actives raise or lower the signal
Calls of active or inactive are those of the source. How the source made its calls: active means hit-call score of the fitted dose curve at least 0.9, where 1 is the maximum; inactive means score below 0.9.
Hello, when you answer, please use one of the following outcomes: 1.0 = active, 0.0 = inactive

Below are worked cases with known answers.
CC(=O)Oc1ccccc1C(=O)O	0.0
CC1=C(/C=C/C(C)=C/C=C/C(C)=C/CO)C(C)(C)CCC1	0.0

In: Call for entry `Cc1ccc(C(C)C)c(O)c1` :
Out: 0.0

In: Call for entry `COc1ccc2c(c1)c(CC(=O)O)c(C)n2C(=O)c1ccc(Cl)cc1` :
Out: 0.0

In: // param item: `COC(=O)c1ccc(O)cc1` ; yields the recorded call
Out: 0.0

In: Would you mind telling me which call this test gave `CCOC(=O)C(C)(C)Oc1ccc(Cl)cc1` ?
Out: 0.0

In: // outcome(item) with item = CCCCC(CC)COC(=O)CC(C(=O)OCC(CC)CCCC)S(=O)(=O)O (stereo unspecified)
Out: 1.0

Data origin, for the record: PubChem BioAssay (EPA / NIEHS)
